Molecular target: EGFR del19/C797S (Homo sapiens, UniProt P00533, C797S/DEL746-750)
Sequence (P00533 with tags, fused parts or gaps DEL746-750/C797S): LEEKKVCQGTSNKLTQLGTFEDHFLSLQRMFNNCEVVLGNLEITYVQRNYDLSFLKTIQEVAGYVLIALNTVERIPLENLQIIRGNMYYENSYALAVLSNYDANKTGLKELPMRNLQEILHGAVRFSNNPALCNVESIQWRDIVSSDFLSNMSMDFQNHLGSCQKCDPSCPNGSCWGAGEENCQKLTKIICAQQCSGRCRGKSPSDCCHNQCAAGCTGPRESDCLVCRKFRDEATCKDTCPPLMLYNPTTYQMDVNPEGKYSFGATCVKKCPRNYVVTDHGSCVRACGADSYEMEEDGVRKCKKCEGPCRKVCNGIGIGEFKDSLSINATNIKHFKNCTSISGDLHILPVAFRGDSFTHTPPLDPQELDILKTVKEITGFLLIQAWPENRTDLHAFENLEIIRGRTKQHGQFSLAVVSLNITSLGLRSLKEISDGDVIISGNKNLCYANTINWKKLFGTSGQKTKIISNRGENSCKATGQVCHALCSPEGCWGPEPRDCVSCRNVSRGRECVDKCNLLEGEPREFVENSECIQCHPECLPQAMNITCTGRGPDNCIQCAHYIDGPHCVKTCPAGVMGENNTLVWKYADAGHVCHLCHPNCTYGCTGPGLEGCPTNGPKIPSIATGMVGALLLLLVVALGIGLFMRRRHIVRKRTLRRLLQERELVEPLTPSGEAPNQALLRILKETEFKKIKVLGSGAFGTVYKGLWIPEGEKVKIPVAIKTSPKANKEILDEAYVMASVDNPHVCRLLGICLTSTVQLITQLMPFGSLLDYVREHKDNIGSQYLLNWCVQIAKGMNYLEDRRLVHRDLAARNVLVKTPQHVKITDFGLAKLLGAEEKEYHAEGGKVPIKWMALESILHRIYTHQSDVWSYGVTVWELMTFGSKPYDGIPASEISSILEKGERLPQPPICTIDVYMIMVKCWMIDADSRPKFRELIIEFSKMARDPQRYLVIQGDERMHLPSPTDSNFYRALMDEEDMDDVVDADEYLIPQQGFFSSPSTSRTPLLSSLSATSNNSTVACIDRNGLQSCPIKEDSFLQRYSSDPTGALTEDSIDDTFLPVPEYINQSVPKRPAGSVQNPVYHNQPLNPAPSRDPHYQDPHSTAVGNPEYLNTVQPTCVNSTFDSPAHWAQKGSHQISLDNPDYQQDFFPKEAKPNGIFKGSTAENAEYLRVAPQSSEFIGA
Test: Biochemical EGFR kinase assay (Lance Ultra TR-FRET), double mutant del19/C797S
Details: read-out: IC50 del19/C797S (nM) 100 μM ATP; 100 μM ATP
molecules and their reported IC50

CS(=O)(=O)n1cc(-c2nccc(Nc3cc(N[C@H]4CC[C@@](C)(O)CC4)c(-c4ccn(C(F)F)n4)cn3)n2)cn1	75.4 nM
CN[C@H]1CC[C@@H](Nc2cc(Nc3ccnc(-c4cnn(S(=O)(=O)C5CC5)c4)n3)ncc2-c2ccn(C)n2)CC1	1 nM
Cn1ccc(-c2cnc(Nc3ccnc(-c4cnn(S(=O)(=O)C5CC5)c4)n3)cc2N[C@H]2CC[C@](O)(C(F)(F)F)CC2)n1	54.1 nM

Could you now consider this next molecule?
# IC50 lookup, item `O=S(=O)(C1CC1)n1cc(-c2nccc(Nc3cc(N[C@H]4CC[C@@H](NCCF)CC4)c(-c4csc(C(F)(F)F)n4)cn3)n2)cn1` 25.6 nM

====

Biological target: UniProtKB P00533
Experiment: Biochemical EGFR kinase assay (Lance Ultra TR-FRET), wildtype
Conditions: Km ATP; read-out: IC50 WT (nM) Km ATP
measuredEndpoint: IC50
Just the number plus its unit, please.

Example entries and their recorded answers appear below.
CS(=O)(=O)n1ccc(-c2nccc(Nc3cc(N[C@H]4CC[C@@](C)(O)CC4)c(-c4ccn(C(F)F)n4)cn3)n2)c1	57.2 nM
C=CCCS(=O)(=O)n1cc(-c2nccc(Nc3cc(N[C@H]4CC[C@@](C)(O)CC4)c(-c4ccn(C(F)F)n4)cn3)n2)cn1	1.6 nM

Give its IC50 value. Item: `Cn1ccc(-c2cnc(Nc3ccnc(-c4cnn(S(=O)(=O)C5CC5)c4)n3)cc2N[C@H]2CCC[C@H](CO)C2)n1` 3.6 nM

====

Molecular target: EGFR del19/T790M/C797S (Homo sapiens, UniProt P00533, C797S/DEL746-750/T790M)
Sequence (P00533 with tags, fused parts or gaps DEL746-750/T790M/C797S): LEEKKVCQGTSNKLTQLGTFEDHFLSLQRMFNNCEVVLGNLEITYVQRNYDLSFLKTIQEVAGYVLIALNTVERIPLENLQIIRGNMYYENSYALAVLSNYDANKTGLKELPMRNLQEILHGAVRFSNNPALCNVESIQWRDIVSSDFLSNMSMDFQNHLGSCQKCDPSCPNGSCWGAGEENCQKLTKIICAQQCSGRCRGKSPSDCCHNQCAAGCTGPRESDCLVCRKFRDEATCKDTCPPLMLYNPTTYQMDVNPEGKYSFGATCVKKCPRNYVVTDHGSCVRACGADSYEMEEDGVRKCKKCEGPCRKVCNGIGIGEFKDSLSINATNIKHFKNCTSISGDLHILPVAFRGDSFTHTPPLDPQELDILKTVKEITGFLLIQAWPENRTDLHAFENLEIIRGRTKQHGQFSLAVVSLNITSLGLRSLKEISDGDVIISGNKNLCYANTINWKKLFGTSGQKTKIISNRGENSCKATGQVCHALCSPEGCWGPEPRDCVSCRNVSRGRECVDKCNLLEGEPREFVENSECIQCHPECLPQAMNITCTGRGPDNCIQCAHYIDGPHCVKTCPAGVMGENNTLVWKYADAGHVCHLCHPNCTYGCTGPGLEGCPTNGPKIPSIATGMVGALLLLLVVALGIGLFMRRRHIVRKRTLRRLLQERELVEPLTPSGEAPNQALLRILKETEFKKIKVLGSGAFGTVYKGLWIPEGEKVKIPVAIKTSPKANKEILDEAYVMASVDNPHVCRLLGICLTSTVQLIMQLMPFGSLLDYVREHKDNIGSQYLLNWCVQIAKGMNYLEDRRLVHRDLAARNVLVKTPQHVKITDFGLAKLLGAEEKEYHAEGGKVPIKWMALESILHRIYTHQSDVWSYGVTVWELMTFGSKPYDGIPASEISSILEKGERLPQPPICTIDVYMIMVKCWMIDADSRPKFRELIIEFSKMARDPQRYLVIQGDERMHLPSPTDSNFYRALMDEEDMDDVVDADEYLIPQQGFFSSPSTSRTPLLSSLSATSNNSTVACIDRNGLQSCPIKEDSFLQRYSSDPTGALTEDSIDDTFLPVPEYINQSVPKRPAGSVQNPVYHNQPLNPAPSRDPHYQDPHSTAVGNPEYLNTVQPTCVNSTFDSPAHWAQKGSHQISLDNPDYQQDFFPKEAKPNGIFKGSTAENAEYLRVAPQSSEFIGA
Experiment: Biochemical EGFR kinase assay (Lance Ultra TR-FRET), triple mutant del19/T790M/C797S
Conditions: Km ATP; read-out: IC50 del19/T790M/C797S (nM) Km ATP
Category | rule: reported IC50 within range, see low-valued (below 0.4 nM), mid-valued (0.4 nM to below 0.8 nM), high-valued (0.8 nM or more)

Here are 10 compounds together with their reported answers.
OCC[C@H]1CC[C@@H](Nc2cc(Nc3ccnc(-c4cnn(CC(F)F)c4)n3)ncc2-c2ccn(C(F)F)n2)CC1	high-valued
COCn1ccc(-c2cnc(Nc3ccnc(-c4cnn(S(=O)(=O)C5CC5)c4)n3)cc2N[C@H]2CC[C@@H](C(C)(C)O)CC2)n1	high-valued
CN(C)C[C@H]1CC[C@H](CNc2cc(Nc3ccnc(-c4cnn(S(=O)(=O)C5CC5)c4)n3)ncc2-c2ccn(C(F)F)n2)CC1	mid-valued
Cn1ccc(-c2cnc(Nc3ccnc(-c4cnn(S(=O)(=O)C5CC5)c4)n3)cc2N[C@H]2CC[C@](O)(CO)CC2)n1	low-valued
Cc1cc(-c2cnc(Nc3ccnc(-c4cnn(S(=O)(=O)C5CC5)c4)n3)cc2N[C@H]2CC[C@@](C)(O)CC2)nn1C	low-valued
Cn1nc(-c2cnc(Nc3ccnc(-c4cnn(S(=O)(=O)C5CC5)c4)n3)cc2NC[C@H]2CC[C@@H](O)C2)cc1C(F)(F)F	low-valued
CC(C)(O)[C@H]1CC[C@@H](Nc2cc(Nc3ccnc(-c4cnn(S(=O)(=O)C5CC5)c4)n3)ncc2-c2ccn(CCC(F)(F)F)n2)CC1	high-valued
Cn1nc(-c2cnc(Nc3ccnc(-c4cnn(S(=O)(=O)C5CC5)c4)n3)cc2N[C@H]2CC[C@@H](F)CC2)cc1C(F)(F)F	high-valued
O=S(=O)(C1CC1)n1cc(-c2nccc(Nc3cc(NCC4(CO)COC4)c(-c4ccn(C(F)F)n4)cn3)n2)cn1	low-valued
C[C@]1(O)CC[C@@H](Nc2cc(Nc3ccnc(-c4cnc5c(c4)NCCO5)n3)ncc2-c2ccn(C(F)F)n2)CC1	low-valued

Assign a category based on measured IC50 for `O=S(=O)(C1CC1)n1cc(-c2nccc(Nc3cc(N[C@H]4CC[C@@H](CO)CC4)c(-c4ccn(C5CC5)n4)cn3)n2)cn1` and give only the class name. low-valued

Which bin, given its IC50, does `O=S(=O)(C1CC1)n1cc(-c2nccc(Nc3cc(N[C@H]4CC[C@@H](CCO)CC4)c(-c4ccn(CC(F)(F)F)n4)cn3)n2)cn1` occupy? high-valued

Kindly state the category for this compound: O=S(=O)(C1CC1)n1cc(-c2nccc(Nc3cc(NC4CCCN(CCF)C4)c(-c4ccn(C(F)F)n4)cn3)n2)cn1 (centres unmarked) mid-valued

Lab log: `Cc1nn(CC(F)(F)F)cc1-c1nccc(Nc2cc(N[C@H]3CC[C@@H](CCO)CC3)c(-c3ccn(C(F)F)n3)cn2)n1` — assign IC50 category high-valued

Category of `CN(C)[C@H]1CC[C@H](CNc2cc(Nc3ccnc(-c4cnn(S(=O)(=O)C5CC5)c4)n3)ncc2-c2ccn(C(F)F)n2)CC1` , please. low-valued

In plain terms, what class is `CN[C@H]1CC[C@H](CNc2cc(Nc3ccnc(-c4cnn(S(=O)(=O)C5CC5)c4)n3)ncc2-c2ccn(C(F)F)n2)CC1` ? low-valued

Which IC50 category applies to `O=S(=O)(C1CC1)n1cc(-c2nccc(Nc3cc(NC[C@H]4C[C@H](CO)C4)c(-c4ccn(C(F)F)n4)cn3)n2)cn1` here? mid-valued

Pick a category. Item: Cn1ccc(-c2cnc(Nc3ccnc(-c4cnn(S(=O)(=O)C5CC5)c4)n3)cc2NCC2(C)CCC(O)CC2)n1 (centres unmarked) mid-valued

Which band does O=S(=O)(C1CC1)n1cc(-c2nccc(Nc3cc(OC4CCC(O)C4)c(-c4ccn(C(F)F)n4)cn3)n2)cn1 (centres unmarked) fall in? high-valued

Class? Entry: `Cc1cc(-c2cnc(Nc3ccnc(-c4cnn(S(=O)(=O)C5CC5)c4)n3)cc2N[C@H]2CC[C@@H](C(C)(C)O)CC2)nn1C` high-valued
